Entry source: the supplement of paper PMC9694430

Recorded thermal shift delta Tm for the following molecules
- Tested on: LOC_OS05G28520-cb001
- Procedure text: thermal shift delta Tm vs DMSO control; higher = stronger stabilization (binding);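 note: purified Escherichia coli-expressed rice kinase domain construct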
- Test settings: 12.5 µM; protein concentration 2 µM
Metric: thermal shift delta Tm (°C)

Molecule	Metric	Obs value
COc1ccc([C@@H]2OC[C@H]3[C@@H]2CO[C@@H]3c2ccc(O[C@@H]3O[C@H](CO)[C@@H](O)[C@H](O)[C@H]3O)c(OC)c2)cc1OC [Forsythin]	thermal shift delta Tm	0.25
O=c1[nH]nc(Sc2ncc([N+](=O)[O-])s2)n1-c1ccc2c(c1)OCCO2	thermal shift delta Tm	0.59
CC(C)N(CCC(=O)c1ccc2ccccc2c1)Cc1ccccc1	thermal shift delta Tm	-0.95
Cc1ccc(NC(=O)c2ccc(CN3CCN(C)CC3)cc2)cc1Nc1nccc(-c2cccnc2)n1 [Imatinib (STI571)]	thermal shift delta Tm	0.71

* * *

Recorded thermal shift delta Tm for the following compounds
- Tested on: LOC_OS01G63280-cb003
- Procedure text: thermal shift delta Tm vs DMSO control; higher = stronger stabilization (binding)
- Test settings: 12.5 µM; protein concentration 2 µM
Structures can show the parent of a compound that is named as a salt.

Compound	thermal shift delta Tm
CN1CCC(CNc2ccc3ncc(-c4cccc(OC(F)(F)F)c4)n3n2)CC1 [SGI-1776 free base]	0.98 °C
CS(=O)(=O)N1CCN(Cc2cc3nc(-c4cccc5[nH]ncc45)nc(N4CCOCC4)c3s2)CC1 [Pictilisib (GDC-0941)]	-0.25 °C
Cc1cc(O)c(-c2ccc([C@@H](C)CN)cc2)c2c1[nH]c(=O)c1sccc12 [OTS514 hydrochloride]	0.46 °C
C[C@@H](Nc1cc(F)cc(F)c1)c1cc(C(=O)N(C)C)cc2c(=O)cc(N3CCOCC3)oc12	0.24 °C

* * *

- Tested on: LOC_OS01G21960-cb002
- Procedure text: thermal shift delta Tm vs DMSO control; higher = stronger stabilization (binding)
- Test settings: 12.5 µM; protein concentration 2 µM
Just so you know, the groups by thermal shift delta Tm go like this: low group (below 0.5 °C), middle group (0.5 °C to below 1 °C), high group (1 °C or more)

Molecule	Label
CCCCNc1ncc2c(-c3ccc(CN4CCN(C)CC4)cc3)cn([C@H]3CC[C@H](O)CC3)c2n1	high group
CCN(CC)CCNC(=O)c1c(C)[nH]c(/C=C2\C(=O)Nc3ccc(F)cc32)c1C [Sunitinib Malate]	high group
O=c1c(-c2ccc(O)cc2)coc2cc(O)cc(O)c12 [Genistein]	middle group
COc1ccc(/C=C/C(=O)C2(C(=O)/C=C/c3ccc(OC)c(OC)c3)CCCCC2)cc1OC	middle group
Cc1ccc(Nc2nccc(N(C)c3ccc4c(C)n(C)nc4c3)n2)cc1S(N)(=O)=O [Pazopanib]	middle group
CN(C[C@@H]1COCCO1)S(=O)(=O)Nc1ccc2ccc3ncc(-c4cnn(C)c4)cc3c(=O)c2c1	high group
O=C(c1ccc(F)c(F)c1Nc1ccc(I)cc1F)N1CC(O)([C@@H]2CCCCN2)C1 [Cobimetinib (GDC-0973, RG7420)]	low group
CN(C)CCCn1cc(C2=C(c3c[nH]c4ccccc34)C(=O)NC2=O)c2ccccc21	high group
Oc1cccc(-c2nc(N3CCOCC3)c3oc4ncccc4c3n2)c1	middle group
C=CC(=O)Nc1cc(Nc2nccc(-c3cn(C)c4ccccc34)n2)c(OC)cc1N(C)CCN(C)C [Osimertinib (AZD9291)]	low group
O=C(Nc1cccc(C(F)(F)F)c1)c1cccc2cc(Oc3cc(CO)ncn3)ccc12	middle group
COC(=O)[C@]12CCC(C)(C)C[C@H]1[C@H]1C(=O)C=C3[C@@]4(C)C=C(C#N)C(=O)C(C)(C)[C@@H]4CC[C@@]3(C)[C@]1(C)CC2 [Bardoxolone Methyl]	low group
C[C@@H]1COCCN1c1cc(=O)n2c(n1)N(Cc1cncc(Cl)c1)[C@H](C(F)(F)F)CC2	low group
CC(C)NC(=O)COc1cccc(-c2nc(Nc3ccc4[nH]ncc4c3)c3ccccc3n2)c1	high group
CS(=O)(=O)c1cccc(CNc2nc(Nc3ccc4c(c3)CCC(=O)N4)ncc2C(F)(F)F)c1	high group
COc1ccc(Oc2cc(NCCC(F)(F)F)c3ncc(-c4ccc(C(=O)NC5CC5)c(C)c4)n3n2)c(F)c1F	low group
